Test system: Jurkat cells
Assay: IL-2 secretion assay in Jurkat cells activated with CD3/CD28 T Cell Activator
Assay type: cell-based
Settings: Homo sapiens; Jurkat cells, CD3/CD28 T Cell Activator, 24 h, IL-2 AlphaLISA; read-out: IL-2 Secretion (EC50)
pEC50: −log10 of the molar value.
Metric name: pEC50

// solved cases for pEC50 follow
# Molecule, Metric name, Val
measured = [
    ("COCCNCc1cc(C(=O)Nc2cc(-c3ccc(C(=O)OC)cc3-c3ncoc3C)cc(C3CC3)n2)c(=O)n(C2CC2)c1 (single isomer, unassigned) [Example 51]", "pEC50", "5.30 to 6.00"),
    ("C[C@H]1CCCN(Cc2cc(C(=O)Nc3cc(-c4ccc(C#N)cc4-c4nccn4C)cc(C4CC4)n3)c(=O)n(C3CC3)c2)C1 [Example 43]", "pEC50", "> 7.00"),
    ("COCCNCc1cc(C(=O)Nc2cc(-c3ccc(C#N)cc3-c3nc(C#N)cn3C)cc(C3CC3)n2)c(=O)n(CC2CC2)c1 [Example 63]", "pEC50", "6.00 to 7.00"),
    ("COCCNCc1cc(C(=O)Nc2cc(-c3ccc(F)cc3-n3nncc3CF)cc(C3CC3)n2)c(=O)n(C2CC2)c1 [Example 72]", "pEC50", "6.00 to 7.00"),
    ("CO[C@@H](C)CNCc1cc(C(=O)Nc2cc(-c3ccc(C#N)cc3C(=O)N3CC(F)(F)C3)cc(C3CC3)n2)c(=O)n(C2CC2)c1 [Example 95]", "pEC50", "> 7.00"),
    ("C[C@H]1CCCN(Cc2cc(C(=O)Nc3cc(-c4ccc(C#N)cc4-c4nncn4C(F)F)cc(C4CC4)n3)c(=O)n(C3CC3)c2)C1 [Example 7]", "pEC50", "> 7.00"),
    ("CO[C@H]1CCN(Cc2cc(C(=O)Nc3cc(-c4ccc(F)cc4-c4nncn4C)cc(C4CC4)n3)c(=O)n(C3CC3)c2)C1 [Example 16]", "pEC50", "6.00 to 7.00"),
    ("[2H]C([2H])([2H])n1ccnc1-c1cc(C#N)ccc1-c1cc(NC(=O)c2cc(CNCCOC)cn(C3CC3)c2=O)nc(C2CC2)c1 [Example 45]", "pEC50", "> 7.00"),
]

Q. Item under review: Cn1cc(C#N)nc1-c1cc(C#N)ccc1-c1cc(NC(=O)c2cc(CNC3(C)CCC3)cn(C3CC3)c2=O)nc(C2CC2)c1 [Example 49] . Reported pEC50?
A. > 7.00

Q. Item under review: CC1(NCc2cc(C(=O)Nc3cc(-c4ccc(C#N)cc4-c4nncn4C(F)F)cc(C4CC4)n3)c(=O)n(C3CC3)c2)CCC1 [Example 10] . Reported pEC50?
A. > 7.00

Q. Item under review: CC(C)Cn1cc(CN2CCC[C@H](C)C2)cc(C(=O)Nc2cc(-c3ccc(F)cc3-c3nncn3C)cc(C3CC3)n2)c1=O [Example 61] . Reported pEC50?
A. > 7.00

Q. Item under review: C[C@H]1CCCN(Cc2cc(C(=O)Nc3cc(-c4ccc(C#N)cc4-c4nncn4C(F)F)cc(N)n3)c(=O)n(C3CC3)c2)C1 [Example 8] . Reported pEC50?
A. 6.00 to 7.00

Q. Item under review: C[C@H]1CCCN(Cc2cc(C(=O)Nc3cc(-c4ccc(C(N)=O)cc4-c4nccn4C)cc(C4CC4)n3)c(=O)n(C3CC3)c2)C1 [Example 44] . Reported pEC50?
A. 5.30 to 6.00

Q. Item under review: Cn1ccnc1-c1cc(C#N)ccc1-c1cc(NC(=O)c2cc(CNCCOC(F)(F)F)cn(C3CC3)c2=O)nc(C2CC2)c1 [Example 40] . Reported pEC50?
A. 6.00 to 7.00

Q. Item under review: C[C@H]1CCCN(Cc2cc(C(=O)Nc3cc(C#N)cc(-c4ccc(F)cc4C(=O)N4CC(F)C4)c3)c(=O)n(C3CC3)c2)C1 [Example 66] . Reported pEC50?
A. 5.30 to 6.00

Q. Item under review: CC(C)Nc1cc(-c2ccc(Cl)cc2C(=O)N2CC(F)(F)C2)cc(NC(=O)c2cc(CNC[C@@H]3CCCO3)cn(C3CC3)c2=O)n1 [Example 92] . Reported pEC50?
A. > 7.00

Q. Item under review: C[C@H]1CCCN(Cc2cc(C(=O)Nc3cc(-c4ccc(F)cc4-c4nncn4C)cc(C4CC4)n3)c(=O)n(C3CC3)c2)C1 [Example 2] . Reported pEC50?
A. > 7.00

Q. Item under review: COCCNCc1cc(C(=O)Nc2cc(-c3ccc(C#N)cc3-c3ncoc3C)cc(C3CC3)n2)c(=O)n(CC2CC2)c1 [Example 64] . Reported pEC50?
A. 6.00 to 7.00

Q. Item under review: Cn1cnnc1-c1cc(F)ccc1-c1cc(NC(=O)c2cc(C3CCNC3)cn(CC3CC3)c2=O)nc(C2CC2)c1 (stereo not shown) [Example 31] . Reported pEC50?
A. < 5.30

Q. Item under review: N#Cc1ccc(-c2cc(NC(=O)c3cc(CNCCOC(F)(F)F)cn(C4CC4)c3=O)nc(C3CC3)c2)c(-c2nncn2C(F)F)c1 [Example 9] . Reported pEC50?
A. > 7.00

Q. Item under review: CO[C@H](C)CNCc1cc(C(=O)Nc2cc(-c3ccc(F)cc3-c3nncn3C)cc(C3CC3)n2)c(=O)n(C2CC2)c1 [Example 20] . Reported pEC50?
A. > 7.00

Q. Item under review: CO[C@H]1C[C@@](c2cccc(NC(=O)c3cc(CN4CCC[C@H](C)C4)cn(C4CC4)c3=O)c2)(c2nncn2C)C1 [Example 80] . Reported pEC50?
A. 6.00 to 7.00
